- experiment-description: Organoleptic test in combination with sucrose against sucrose (sucrose enhancement, 2-AFC)
- Type: in vivo
- Parameters: key: x = detected
- measurement-setup: compound below its sweetness perception level in 6% sucrose vs 6% sucrose, 12 to 15 panelists
quantity-measured: Sucrose enhancement

Problem: Item C[C@@H]1O[C@@H](O[C@@H]2[C@@H](O[C@@H]3O[C@@H](C)[C@H](O[C@@H]4OC[C@H](O)[C@H](O[C@@H]5OC[C@@H](O)[C@H](O)[C@H]5O)[C@H]4O)[C@@H](OC4OC[C@](O)(CO)[C@H]4O)[C@H]3O)[C@H](OC(=O)[C@]34CCC(C)(C)C[C@H]3C3=CCC5[C@@]6(C)C[C@H](O)[C@H](O[C@@H]7O[C@H](CO[C@@H]8OC[C@H](O)[C@H](O)[C@H]8O)[C@@H](O)[C@H](O)[C@H]7O)C(C)(C)C6CC[C@@]5(C)[C@]3(C)C[C@H]4O)OC[C@H]2O)[C@H](O)[C@H](O)[C@H]1O (stereo partly shown) [Astersaponin C] has what recorded Sucrose enhancement?
Solution: x

---

- experiment-description: Organoleptic test in combination with Rebaudioside M (Rebaudioside M enhancement, 2-AFC)
- Type: in vivo
- Design: key: x = detected
- measurement-setup: compound below its sweetness perception level in 150 ppm Rebaudioside M vs 150 ppm Rebaudioside M, 12 to 15 panelists
quantity-measured: Reb M enhancement

Problem: Item C[C@@H]1O[C@@H](O[C@H]2[C@H](OC(=O)[C@]34CCC(C)(C)C[C@H]3C3=CCC5[C@@]6(C)C[C@H](O)[C@H](O[C@@H]7O[C@H](CO[C@@H]8OC[C@H](O)[C@H](O)[C@H]8O)[C@@H](O)[C@H](O)[C@H]7O)C(C)(C)C6CC[C@@]5(C)[C@]3(C)C[C@H]4O)OC[C@@H](O)[C@@H]2O)[C@H](O)[C@H](O[C@@H]2OC[C@](O)(CO)[C@H]2O)[C@H]1O[C@@H]1OC[C@H](O)[C@H](O[C@@H]2OC[C@@H](O)[C@H](O)[C@H]2O)[C@H]1O (stereo partly shown) [Astersaponin A] has what recorded Reb M enhancement?
Solution: x

---

- experiment-description: Organoleptic test in combination with sucrose against sucrose (sucrose enhancement, 2-AFC)
- Type: in vivo
- Design: key: x = detected
- measurement-setup: compound below its sweetness perception level in 6% sucrose vs 6% sucrose, 12 to 15 panelists
quantity-measured: Sucrose enhancement

Problem: Item C[C@@H]1O[C@@H](O[C@@H]2[C@@H](O[C@@H]3O[C@@H](C)[C@H](O[C@@H]4OC[C@H](O)[C@H](O[C@@H]5OC[C@@H](O)[C@H](O)[C@H]5O)[C@H]4O)[C@@H](O[C@@H]4OC[C@](O)(CO)[C@H]4O)[C@H]3O)[C@H](OC(=O)[C@]34CCC(C)(C)C[C@H]3C3=CCC5[C@@]6(C)CC[C@H](O[C@@H]7O[C@H](CO[C@@H]8OC[C@H](O)[C@H](O)[C@H]8O)[C@@H](O)[C@H](O)[C@H]7O)C(C)(C)C6CC[C@@]5(C)[C@]3(C)C[C@H]4O)OC[C@H]2O)[C@H](O)[C@H](O)[C@H]1O (stereo partly shown) has what recorded Sucrose enhancement?
Solution: x

Where do the numbers come from? From patent US20230248034A1.
